Test system: P388 leukemia ip, CD2F1 mice, survival T/C
PROTOCOL SUMMARY: NCI In Vivo Anticancer Drug Screen. Data for tumor model P388 Leukemia (intraperitoneal) in CD2F1 (CDF1) mice
COND: endpoint: median survival time; dose: 50.0 mg/kg/injection; schedule: Q01DX009 (ip); vehicle: saline
Toxic doses and inconclusive results are not listed. The calls were made as follows: active = survival T/C of 150% or more; inactive = T/C below 125% in these data.
Classes used: active, inactive

{"columns": ["MOLECULE", "CLASS LABEL"],
 "data": [
  ["O=[N+]([O-])c1ccc(SCc2ccccc2)c2nonc12", "inactive"],
  ["Oc1ccc(C2N=CNc3nc[nH]c32)c(O)c1 (stereo unspecified)", "inactive"],
  ["O=c1[nH]cnc2[nH]cc([N+](=O)[O-])c12", "inactive"],
  ["CCN(Cc1ccc(CN(CC)C(=O)c2sc3ccccc3c2Cl)cc1)C(=O)c1sc2ccccc2c1Cl", "inactive"],
  ["Nc1cc(N)c(N=Nc2cccc3c(S(=O)(=O)O)cccc23)cc1N=Nc1cc([N+](=O)[O-])ccc1O", "inactive"],
  ["NC(=S)N/N=C/C=N/NC(N)=S", "inactive"],
  ["Cc1cc(Cl)cnc1N", "inactive"],
  ["CCc1c2cc(OC)c(OC)cc2cc2c3cc(OC)c(OC)cc3cc[n+]12 (tested in a mixture with another compound)", "active"],
  ["COS(C)=O (stereo unspecified)", "inactive"],
  ["CC(C)N=C(Cc1ccccc1)NC(C)(C)C", "inactive"],
  ["COc1cc2c(cc1OC)CC[N+](CCC[N+](C)(C)C)=C2", "inactive"],
  ["CSc1nccnn1", "inactive"],
  ["c1cncc(CNCc2cccnc2)c1", "inactive"],
  ["Cc1cc(C)n(-c2cc(N3CCN(C)CC3)ncn2)n1", "inactive"],
  ["O=C1c2ccccc2N(C(=O)CN2CCOCC2)CN1c1ccccc1", "inactive"],
  ["NC(c1ccccc1)S(=O)(=O)O (stereo unspecified)", "inactive"],
  ["CN(C)CC(CN1CCCC1)C(=O)c1ccccc1 (stereo unspecified)", "inactive"],
  ["N#CC(C#N)=Cc1ccc(N2CCOCC2)cc1", "inactive"],
  ["Sc1ccccc1N=Cc1ccc(C=Nc2ccccc2S)cc1", "inactive"],
  ["CCCCCCCCCC[N+](C)(C)CC(O)CO (stereo unspecified)", "inactive"],
  ["CCOC(=O)C1=C(NC(C)=O)Sc2ccccc2C1", "inactive"],
  ["CC(C)(C)c1cc(/C=N\\O)cc(C(C)(C)C)c1O", "inactive"],
  ["Fc1cccc(NC(=S)SCc2ccc(Cl)cc2)c1", "inactive"],
  ["CCCN(CCC)CCCOC(=O)c1ccc2oc3ccc(C(=O)OCCCN(CCC)CCC)cc3c2c1", "inactive"],
  ["[Cl][Pd]([Cl])([Cl])[Cl]", "inactive"],
  ["CN1C(=O)C2N(C(=O)C1(C)S)c1ccccc1C2(C)C (stereo unspecified)", "inactive"]
]}

====

System: P388 leukemia ip, CD2F1 mice, survival T/C
PROTOCOL SUMMARY: NCI In Vivo Anticancer Drug Screen. Data for tumor model P388 Leukemia (intraperitoneal) in CD2F1 (CDF1) mice
COND: endpoint: median survival time; dose: 6.25 mg/kg/injection; schedule: Q01DX009 (ip); vehicle: water
Experimental: The antitumor activity of compounds was measured in mice bearing transplantable tumors. Survival or tumor size were measured and the results are expressed as the measurement made in the treated group (T) divided by the measurement made in the vehicle treated control group (C). The tumor model used in this assay is P388 Leukemia (intraperitoneal) in CD2F1 (CDF1) mice
Toxic doses and inconclusive results are not listed. How the source made its calls: active means survival T/C of 150% or more; inactive means T/C below 125% in these data.
Classes used: 1 for active, 0 for inactive

{"columns": ["MOLECULE", "CLASS LABEL"],
 "data": [
  ["NC(=O)CCC(N)C(=O)O.[Cl-].[Cl-].[Cl-].[Cl-].[Pt+2] (stereo unspecified)", 1],
  ["CCCC[P+](CCCC)(CCCC)CCN1C(=O)c2ccccc2C1=O", 0],
  ["NCC1OC(n2cnc3c(N)ncnc32)C(O)C1O (stereo unspecified)", 0],
  ["Cc1cc(NN=O)nc(C)c1C#N", 0],
  ["O=NNc1cnc(Br)cn1", 0],
  ["COC(=O)C#CCO", 0]
]}
